Recorded values, source patent US12365674B2.

- assayed target: human HDAC3/SMRT heterodimer (Homo sapiens, UniProt O15379)
- Construct: Full length human HDAC3-FLAG was expressed in HEK-293F cells along with SMRT
- Sequence (O15379 whole entry): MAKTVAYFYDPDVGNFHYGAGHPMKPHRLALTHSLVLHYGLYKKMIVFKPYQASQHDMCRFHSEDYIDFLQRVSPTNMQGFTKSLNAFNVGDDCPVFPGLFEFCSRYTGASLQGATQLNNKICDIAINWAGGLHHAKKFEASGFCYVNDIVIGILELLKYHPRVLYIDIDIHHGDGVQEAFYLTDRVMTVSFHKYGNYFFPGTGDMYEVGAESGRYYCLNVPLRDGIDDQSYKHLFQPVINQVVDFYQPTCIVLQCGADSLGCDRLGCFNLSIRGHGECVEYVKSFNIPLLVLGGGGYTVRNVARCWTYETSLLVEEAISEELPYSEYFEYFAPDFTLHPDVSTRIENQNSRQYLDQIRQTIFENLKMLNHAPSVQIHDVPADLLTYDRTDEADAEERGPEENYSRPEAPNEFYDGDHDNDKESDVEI
- Sequence (Q9Y618 1-899 partner limits assumed): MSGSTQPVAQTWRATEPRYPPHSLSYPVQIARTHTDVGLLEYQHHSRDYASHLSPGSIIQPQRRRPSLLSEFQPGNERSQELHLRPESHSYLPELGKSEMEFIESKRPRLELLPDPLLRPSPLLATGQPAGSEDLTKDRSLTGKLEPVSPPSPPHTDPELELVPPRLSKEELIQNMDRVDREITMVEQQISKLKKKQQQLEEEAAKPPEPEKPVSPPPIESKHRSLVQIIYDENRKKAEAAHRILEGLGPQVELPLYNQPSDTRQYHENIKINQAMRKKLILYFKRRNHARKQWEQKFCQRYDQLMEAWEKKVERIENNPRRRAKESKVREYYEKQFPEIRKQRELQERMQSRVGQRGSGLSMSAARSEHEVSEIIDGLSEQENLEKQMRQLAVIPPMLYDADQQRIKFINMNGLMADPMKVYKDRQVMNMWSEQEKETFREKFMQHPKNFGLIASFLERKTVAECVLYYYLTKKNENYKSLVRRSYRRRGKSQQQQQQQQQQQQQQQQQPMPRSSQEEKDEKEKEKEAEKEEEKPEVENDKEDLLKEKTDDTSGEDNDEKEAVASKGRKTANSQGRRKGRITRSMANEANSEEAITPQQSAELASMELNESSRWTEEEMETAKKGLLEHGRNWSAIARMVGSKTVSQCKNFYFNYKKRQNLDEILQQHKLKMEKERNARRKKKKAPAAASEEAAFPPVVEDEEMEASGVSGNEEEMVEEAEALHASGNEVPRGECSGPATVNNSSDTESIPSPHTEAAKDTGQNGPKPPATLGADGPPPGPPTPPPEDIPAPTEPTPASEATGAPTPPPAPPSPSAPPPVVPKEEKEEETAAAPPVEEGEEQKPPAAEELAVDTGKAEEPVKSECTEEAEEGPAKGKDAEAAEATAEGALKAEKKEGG
- assay comment: Human HDAC enzyme inhibitor Fluor-de-Lys assay, HDAC3/SMRT
- condition context: HDAC3/SMRT 0.3 nM enzyme, 20 μM substrate BML-KI104, 10 μM IP4, 3 h pre-incubation, 60 min reaction; read-out: HDAC3_IC50
pIC50: −log10 of the molar value.
Assign TRUE to entries whose pIC50 meets or exceeds 8; assign FALSE to the rest.

molecular_string=COc1nc2ccccc2cc1-c1cnc([C@H](COCCCC(=O)c2ncco2)NC(=O)[C@H]2CC23CCN(C)CC3)[nH]1 label=TRUE
molecular_string=CNC(=O)C(=O)CCCOC[C@H](NC(=O)c1cncs1)c1ncc(-c2cc3ccccc3nc2OC)[nH]1 label=TRUE
molecular_string=CNC(=O)C(=O)CCCOC[C@H](NC(=O)C12CCN(CC1)CC2)c1ncc(-c2cc3ccccc3nc2OC)[nH]1 label=TRUE
molecular_string=CCC(=O)CCCOC[C@H](NC(=O)C1CN(C)C1)c1ncc(-c2cc3ccccc3nc2OC)[nH]1 label=FALSE
molecular_string=N[C@@H](COCCCC(=O)c1ccon1)c1ncc(-c2ccccc2F)[nH]1 label=FALSE
molecular_string=CCC(=O)CCCOC[C@H](NC(=O)C12CCN(CC1)CC2)c1ncc(-c2cc3ccccc3nc2OC)[nH]1 label=FALSE
molecular_string=COc1nc2ccccc2cc1-c1cnc([C@H](COCCCC(=O)c2ncco2)NC(=O)CN(C)C)[nH]1 label=TRUE
molecular_string=COc1cc2nc(C)ccc2cc1-c1cnc([C@H](COCCCC(=O)c2cc(C)on2)NC(=O)C2CN(C)C2)[nH]1 label=TRUE
molecular_string=COc1nc2ccccc2cc1-c1cnc([C@H](COCCCC(=O)c2ncco2)NC(=O)c2cncs2)[nH]1 label=TRUE
molecular_string=CN1CCC2(CC1)C[C@@H]2C(=O)N[C@@H](COCCCC(=O)c1ccon1)c1[nH]c(-c2ccc(F)cc2)nc1Cl label=TRUE
molecular_string=COc1cc2nc(C)ccc2cc1-c1cnc([C@H](COCCCC(=O)c2cc(C)on2)NC(=O)[C@H]2CC23CCN(C)CC3)[nH]1 label=TRUE
molecular_string=CN1CC(C(=O)N[C@@H](COCCCC(=O)c2ccon2)c2ncc(-c3ccccc3F)[nH]2)C1 label=TRUE

----------
Record type: IC50 measurement. Applies to: human HDAC1 (Homo sapiens, UniProt Q13547)
endpoint name: IC50 (nM)

molecular_string=CN1CC(C(=O)N[C@@H](COCCCC(=O)c2ccon2)c2[nH]c(-c3ccc(F)cc3)nc2Cl)C1 measure_unit=nM value_reported=11.8
molecular_string=CN1CCC2(CC1)C[C@@H]2C(=O)N[C@@H](COCCCC(=O)c1ccon1)c1[nH]c(-c2ccc(F)cc2)nc1Cl measure_unit=nM value_reported=1.4
molecular_string=CN(C)CC(=O)N[C@@H](COCCCC(=O)c1ccon1)c1[nH]c(-c2ccc(F)cc2)nc1Cl measure_unit=nM value_reported=18.6
molecular_string=COc1cc2nc(C)ccc2cc1-c1cnc([C@H](COCCCC(=O)c2cc(C)on2)NC(=O)C2CN(C)C2)[nH]1 measure_unit=nM value_reported=6.9
molecular_string=COc1nc2ccccc2cc1-c1cnc([C@H](COCCCC(=O)c2ncco2)NC(=O)[C@H]2CC23CCN(C)CC3)[nH]1 measure_unit=nM value_reported=2.1
molecular_string=COc1nc2ccccc2cc1-c1cnc([C@H](COCCCC(=O)c2ncco2)NC(=O)CN(C)C)[nH]1 measure_unit=nM value_reported=2.7
molecular_string=COc1cc2nc(C)ccc2cc1-c1cnc([C@H](COCCCC(=O)c2cc(C)on2)NC(=O)[C@H]2CC23CCN(C)CC3)[nH]1 measure_unit=nM value_reported=3.7
molecular_string=CN1CC(C(=O)N[C@@H](COCCCC(=O)c2ccon2)c2ncc(-c3ccccc3F)[nH]2)C1 measure_unit=nM value_reported=4
molecular_string=COc1nc2ccccc2cc1-c1cnc([C@@H](N)COCCCC(=O)c2ncco2)[nH]1 measure_unit=nM value_reported=288
molecular_string=CNC(=O)C(=O)CCCOC[C@H](NC(=O)C12CCN(CC1)CC2)c1ncc(-c2cc3ccccc3nc2OC)[nH]1 measure_unit=nM value_reported=1.5
molecular_string=COc1nc2ccccc2cc1-c1cnc([C@H](COCCCC(=O)c2ncco2)NC(=O)c2cncs2)[nH]1 measure_unit=nM value_reported=6.6
molecular_string=N[C@@H](COCCCC(=O)c1ccon1)c1ncc(-c2ccccc2F)[nH]1 measure_unit=nM value_reported=602
molecular_string=Cc1ccc2cc(-c3cnc([C@H](CSCCCC(=O)c4ncco4)NC(=O)[C@H]4CC45CCN(C)CC5)[nH]3)ccc2n1 measure_unit=nM value_reported=1.5
molecular_string=COc1nc2ccccc2cc1-c1cnc([C@H](COCCCC(=O)c2ccon2)NC(=O)CN(C)C)[nH]1 measure_unit=nM value_reported=1.5
molecular_string=COc1nc2ccccc2cc1-c1cnc([C@H](COCCCC(=O)c2ncco2)NC(=O)C23CCN(CC2)CC3)[nH]1 measure_unit=nM value_reported=4.7
molecular_string=CNC(=O)C(=O)CCCOC[C@H](NC(=O)c1cncs1)c1ncc(-c2cc3ccccc3nc2OC)[nH]1 measure_unit=nM value_reported=1.5

----------
- assayed target: human HDAC8 (Homo sapiens, UniProt Q9BY41)
- Sequence (Q9BY41 whole entry): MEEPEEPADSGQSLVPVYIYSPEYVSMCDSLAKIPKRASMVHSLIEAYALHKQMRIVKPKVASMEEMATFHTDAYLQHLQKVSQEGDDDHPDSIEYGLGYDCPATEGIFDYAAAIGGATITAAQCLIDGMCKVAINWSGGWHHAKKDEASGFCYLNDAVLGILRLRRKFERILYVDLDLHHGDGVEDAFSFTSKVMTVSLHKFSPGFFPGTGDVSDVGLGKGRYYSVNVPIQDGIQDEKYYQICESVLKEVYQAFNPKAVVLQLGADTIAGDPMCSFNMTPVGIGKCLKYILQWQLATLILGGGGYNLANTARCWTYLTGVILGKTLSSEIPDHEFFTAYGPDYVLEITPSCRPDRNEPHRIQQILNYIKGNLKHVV
pIC50: −log10 of the molar value.
Assign criterion met to entries whose pIC50 meets or exceeds 5; assign criterion not met to the rest.

compound="COc1nc2ccccc2cc1-c1cnc([C@H](COCCCC(=O)c2ccon2)NC(=O)CN(C)C)[nH]1 [Compound 14]" label="criterion met"
compound="COc1nc2ccccc2cc1-c1cnc([C@H](COCCCC(=O)c2ncco2)NC(=O)CN(C)C)[nH]1 [Compound 13]" label="criterion not met"
compound="CCC(=O)CCCOC[C@H](NC(=O)C12CCN(CC1)CC2)c1ncc(-c2cc3ccccc3nc2OC)[nH]1 [Compound 6]" label="criterion not met"
compound="COc1nc2ccccc2cc1-c1cnc([C@H](COCCCC(=O)c2ncco2)NC(=O)C23CCN(CC2)CC3)[nH]1 [Compound 12]" label="criterion met"
compound="CCC(=O)CCCOC[C@H](NC(=O)c1cncs1)c1ncc(-c2cc3ccccc3nc2OC)[nH]1 [Compound 5]" label="criterion met"
compound="CCC(=O)CCCOC[C@H](NC(=O)[C@H]1CC12CCN(CC)CC2)c1ncc(-c2cc3ccccc3nc2OC)[nH]1 [Compound 7]" label="criterion not met"
compound="COc1nc2ccccc2cc1-c1cnc([C@H](COCCCC(=O)c2ncco2)NC(=O)c2cncs2)[nH]1 [Compound 10]" label="criterion met"
compound="CNC(=O)C(=O)CCCOC[C@H](NC(=O)C12CCN(CC1)CC2)c1ncc(-c2cc3ccccc3nc2OC)[nH]1 [Compound 9]" label="criterion met"
compound="CNC(=O)C(=O)CCCOC[C@H](NC(=O)c1cncs1)c1ncc(-c2cc3ccccc3nc2OC)[nH]1 [Compound 8]" label="criterion met"
compound="Cc1ccc2cc(-c3cnc([C@H](CSCCCC(=O)c4ncco4)NC(=O)[C@H]4CC45CCN(C)CC5)[nH]3)ccc2n1 [Compound 21]" label="criterion met"

----------
Record type: IC50 measurement. Applies to: human HDAC2 (Homo sapiens)
endpoint name: IC50 (nM)

compound="CNC(=O)C(=O)CCCOC[C@H](NC(=O)c1cncs1)c1ncc(-c2cc3ccccc3nc2OC)[nH]1 [Compound 8]" inequality_symbol== value_reported=2.5
compound="N[C@@H](COCCCC(=O)c1ccon1)c1ncc(-c2ccccc2F)[nH]1 [Compound 2]" inequality_symbol=≥ value_reported=900
compound="COc1nc2ccccc2cc1-c1cnc([C@@H](N)COCCCC(=O)c2ncco2)[nH]1 [Compound 1]" inequality_symbol== value_reported=1000
compound="COc1cc2nc(C)ccc2cc1-c1cnc([C@H](COCCCC(=O)c2cc(C)on2)NC(=O)[C@H]2CC23CCN(C)CC3)[nH]1 [Compound 20]" inequality_symbol== value_reported=3.8

----------
Record type: pIC50 measurement. Applies to: HDAC6 (Homo sapiens)
pIC50: −log10 of the molar value.
endpoint name: pIC50

compound="CNC(=O)C(=O)CCCOC[C@H](NC(=O)c1cncs1)c1ncc(-c2cc3ccccc3nc2OC)[nH]1 [Compound 8]" inequality_symbol== value_reported=5.29
compound="CN1CCC2(CC1)C[C@@H]2C(=O)N[C@@H](COCCCC(=O)c1ccon1)c1[nH]c(-c2ccc(F)cc2)nc1Cl [Compound 18]" inequality_symbol=< value_reported=6.05
compound="CNC(=O)C(=O)CCCOC[C@H](NC(=O)C12CCN(CC1)CC2)c1ncc(-c2cc3ccccc3nc2OC)[nH]1 [Compound 9]" inequality_symbol=< value_reported=4.35
compound="CCC(=O)CCCOC[C@H](NC(=O)[C@H]1CC12CCN(CC)CC2)c1ncc(-c2cc3ccccc3nc2OC)[nH]1 [Compound 7]" inequality_symbol== value_reported=4.72
compound="COc1nc2ccccc2cc1-c1cnc([C@H](COCCCC(=O)c2ncco2)NC(=O)CN(C)C)[nH]1 [Compound 13]" inequality_symbol=< value_reported=4.35
compound="Cc1ccc2cc(-c3cnc([C@H](CSCCCC(=O)c4ncco4)NC(=O)[C@H]4CC45CCN(C)CC5)[nH]3)ccc2n1 [Compound 21]" inequality_symbol== value_reported=4.71
compound="COc1nc2ccccc2cc1-c1cnc([C@H](COCCCC(=O)c2ncco2)NC(=O)[C@H]2CC23CCN(C)CC3)[nH]1 [Compound 11]" inequality_symbol=< value_reported=4.35
